System: Nuclear hormone receptor DAF-12 (Heterodera glycines), GAL4 fusion
Assay: H. glycines DAF-12 receptor agonists, primary screen, cell-based, luminescence, HEK293, GAL4 fusion, UAS-luciferase (AID 687014);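 further: 0% = DMSO wells and 100% = sodium butyrate wells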
Details: HEK293 GAL4-hgDAF12 UAS-luciferase reporter, agonist luminescence; at 6.8 µM; stronger effect = higher value; normalized to butyrate control
The whole screen tested about 370,000 compounds, of which about 6,800 (1.8%) were called active. Many of the other results were omitted from the sample, so actives are more common in it than they were.
Some compounds, each annotated with its measured activation.
Please give a number only; it is taken to be in %.

# count of solved cases: 8
Compound | activation (%)
COc1ccc(C(=O)OCCN2CCN(C3CN(Cc4cn(Cc5ccccc5F)nn4)S(=O)(=O)C3)CC2)cc1OC (stereo unspecified) | -1.46
CC(=O)Nc1cccc(C(=O)OCC(=O)c2ccc3c(c2)OCO3)c1 | 17.4
CC(=O)Nc1ccc(OC[C@@H](O)CN2CCC(C(O)(c3ccccc3)c3ccccc3)CC2)cc1 | 2.46
CCn1c(SCCC(C)C)nnc1-c1c[nH]c2ccccc12 | -2.13
COc1ccc(NC(=O)c2ccc(OC)cc2)cc1 | 14.9
CC(=O)Nc1cccc(C(=O)OCC(=O)NCc2cc(C)c(O)c(C)c2)c1 | 3.44
COc1ccc(-n2c(SCC(=O)Nc3ccc4c(c3)OCCO4)nnc2-c2ccc(Cl)cc2)cc1 | -1.31
CCOC(=O)N1CCN(S(=O)(=O)c2ccc(C(=O)Nc3ccc(F)cc3F)cc2)CC1 | 3.94

### Prompt Please tell me: activation of COc1ccc(C(=O)OCCN(C)C2CN(Cc3cn(Cc4cccc(C)c4)nn3)S(=O)(=O)C2)cc1OC (stereo unspecified) , system Nuclear hormone receptor DAF-12 (Heterodera glycines), GAL4 fusion?
### Response 0.81

### Prompt Please tell me: activation of COCCNC(=O)Nc1ccc2nc(-c3ccco3)c(-c3ccco3)nc2c1 , system Nuclear hormone receptor DAF-12 (Heterodera glycines), GAL4 fusion?
### Response -6.29

----------
Tested on: Nuclear hormone receptor DAF-12 (Heterodera glycines), GAL4 fusion
Assay: H. glycines DAF-12 receptor agonists, primary screen, cell-based, luminescence, HEK293, GAL4 fusion, UAS-luciferase (AID 687014);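 further: 0% = DMSO wells and 100% = sodium butyrate wells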
Settings: HEK293 GAL4-hgDAF12 UAS-luciferase reporter, agonist luminescence; at 6.8 µM; stronger effect = higher value; normalized to butyrate control
Among all 370,000 compounds or so, about 6,800 (1.8%) were called active. This is one part of a sample in which actives are shown more often than they occur.
Measured Attribute: activation (%)
Please give a number only; it is taken to be in %.

# count of solved cases: 8
Compound | activation (%)
O=C(c1ccccc1)c1ccc(-c2ccccc2C(=O)NC2CCCCN(Cc3ccc(Cl)cc3)C2=O)cc1 (stereo unspecified) | 3.48
CC(C)(C)c1ccc(/C=C/C(=O)NCCCn2ccnc2)cc1 | 3.86
Cc1cccc(Cn2cnc3c(N)c(C)c(C)cc32)c1 | -4.28
Cc1cc(C)nc(NC(=O)/C=C/c2ccc(Cl)cc2)n1 | -0.13
CCCNC(=O)c1c(Cl)cnn1-c1ccc(C)cc1 | 14.5
CC(C)c1cc(NCc2ccccn2)n2c(nc3ccccc32)c1C#N | 3.15
CCOC(=O)[C@]12CCCC3=C1N(CCC3)C(=O)[C@@H](CC(=O)NCC13CC4CC(CC(C4)C1)C3)C2 | 0.11
CCOc1ccc(Oc2c(Cl)cnn(-c3ccc(C)cc3)c2=O)cc1 | 1.52

### Prompt Which activation value is on record for CCCOc1ccccc1-c1nc(SCCC(=O)O)n[nH]1 ?
### Response -0.41

### Prompt Which activation value is on record for COC(C(=O)Nc1ccc(S(=O)(=O)Nc2ccc(C)c(C)c2)cc1)c1ccccc1 (stereo unspecified) ?
### Response -3.51

### Prompt Which activation value is on record for O=C(NCCCN1CCOCC1)c1cc(-c2ccccc2F)no1 ?
### Response 14.2
